Biological target: truncated His-MBP-Tev-KLHDC2 (residues 1-363) (Homo sapiens, UniProt Q9Y2U9)
Construct: truncated His -MBP-Tev-KLHDC2 (residues 1-363) purified from E. coli; made in house; host or cells: E. coli
Assay: KLHDC2 HTRF binding assay
Conditions: 1 nM KLHDC2 (residues 1-363), fluorescein-labeled diglycine peptide probe
READOUT KIND: IC50

| COMPOUND | READOUT KIND | RESULT |
| --- | --- | --- |
| O=C(O)Cn1cc(NC(=O)[C@H]2CC[C@H](NC(=O)C3CCCC3)CC2)ccc1=O | IC50 | > 5 µM |
| Cc1sc2c(c1C)C(c1ccc(Cl)cc1)=N[C@@H](CC(=O)NCCCCCCc1ccncc1-c1cccc(C(=O)Nc3ccc(=O)n(CC(=O)O)c3)c1)c1nnc(C)n1-2 | IC50 | 0.05 to 0.5 µM |

Query block: Record lookup: for truncated His-MBP-Tev-KLHDC2 (residues 1-363) (Homo sapiens, UniProt Q9Y2U9), what IC50 belongs to Cc1sc2c(c1C)C(c1ccc(Cl)cc1)=N[C@@H](CC(=O)NCCCCCCc1ccc(C(=O)Nc3ccc(=O)n(CC(=O)O)c3)cc1-c1cccnc1)c1nnc(C)n1-2 ?
Result block: 0.05 to 0.5 µM

Query block: Record lookup: for truncated His-MBP-Tev-KLHDC2 (residues 1-363) (Homo sapiens, UniProt Q9Y2U9), what IC50 belongs to COc1cc(-c2nccs2)ccc1C(=O)Nc1ccc(=O)n(CC(=O)O)c1 ?
Result block: 0.5 to 5 µM

Query block: Record lookup: for truncated His-MBP-Tev-KLHDC2 (residues 1-363) (Homo sapiens, UniProt Q9Y2U9), what IC50 belongs to CN1CCN(Cc2cccc(-c3ccc(=O)n(CC(=O)O)c3)c2)CC1 ?
Result block: > 5 µM

Query block: Record lookup: for truncated His-MBP-Tev-KLHDC2 (residues 1-363) (Homo sapiens, UniProt Q9Y2U9), what IC50 belongs to O=C(O)Cn1cc(NC(=O)[C@@H]2Cc3ccccc3N(c3cccnc3)C2)ccc1=O ?
Result block: 0.5 to 5 µM

Query block: Record lookup: for truncated His-MBP-Tev-KLHDC2 (residues 1-363) (Homo sapiens, UniProt Q9Y2U9), what IC50 belongs to COc1c(C(=O)Nc2ccc(=O)n(CC(=O)O)c2)cccc1-c1ccccc1 ?
Result block: 0.5 to 5 µM

Query block: Record lookup: for truncated His-MBP-Tev-KLHDC2 (residues 1-363) (Homo sapiens, UniProt Q9Y2U9), what IC50 belongs to CCCc1cccc(-c2ccc(=O)n(CC(=O)O)c2)c1 ?
Result block: > 5 µM

Query block: Record lookup: for truncated His-MBP-Tev-KLHDC2 (residues 1-363) (Homo sapiens, UniProt Q9Y2U9), what IC50 belongs to CN(C)C(=O)c1ccc(-c2ccc(=O)n(CC(=O)O)c2)cc1 ?
Result block: > 5 µM

Query block: Record lookup: for truncated His-MBP-Tev-KLHDC2 (residues 1-363) (Homo sapiens, UniProt Q9Y2U9), what IC50 belongs to Cc1ccc(-c2cccc(C(=O)Nc3ccc(=O)n(CC(=O)O)c3)c2)cc1 ?
Result block: 0.5 to 5 µM

----------
Target: truncated His-MBP-Tev-KLHDC2 (residues 1-363) (Homo sapiens, UniProt Q9Y2U9)
Construct: truncated His -MBP-Tev-KLHDC2 (residues 1-363) purified from E. coli; made in house; host or cells: E. coli
Sequence (Q9Y2U9 1-363): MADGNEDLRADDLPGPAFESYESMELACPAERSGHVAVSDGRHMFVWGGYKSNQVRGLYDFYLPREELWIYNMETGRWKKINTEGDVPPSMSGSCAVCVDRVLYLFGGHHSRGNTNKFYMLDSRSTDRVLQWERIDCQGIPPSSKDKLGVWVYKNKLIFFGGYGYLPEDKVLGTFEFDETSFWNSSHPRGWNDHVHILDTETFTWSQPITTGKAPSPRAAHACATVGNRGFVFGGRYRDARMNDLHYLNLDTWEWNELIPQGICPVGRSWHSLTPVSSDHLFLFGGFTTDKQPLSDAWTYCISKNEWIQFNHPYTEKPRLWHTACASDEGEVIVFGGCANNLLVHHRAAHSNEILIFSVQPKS
Assay: KLHDC2 FP competition binding assay
Settings: 15 nM KLHDC2 (residues 1-363), 10 nM fluorescein-labeled diglycine peptide probe, read-out: KLHDC2 binding Human FP: average external IC50
Listed molecules paired with reported IC50

Solved entries (count: 2):
| MOLECULE | IC50 |
| --- | --- |
| O=C(O)Cn1cc(NC(=O)[C@@H]2CCCN(c3cccnc3)CC2)ccc1=O | > 5 µM |
| COc1cncc(N2CCC[C@H](C(=O)Nc3ccc(=O)n(CC(=O)O)c3)C2)c1 | 0.05 to 0.5 µM |

Query block: Quick check: IC50 of N#CCn1cc(NC(=O)c2cccc(-c3cccnc3)c2)ccc1=O ?
Result block: > 5 µM

Query block: Quick check: IC50 of COc1cc(-c2nccs2)ccc1C(=O)Nc1ccc(=O)n(CC(=O)O)c1 ?
Result block: 0.5 to 5 µM

----------
Molecular target: truncated His-MBP-Tev-KLHDC2 (residues 1-363) (Homo sapiens)
Construct: truncated His -MBP-Tev-KLHDC2 (residues 1-363) purified from E. coli; made in house; host or cells: E. coli
Sequence (Q9Y2U9 1-363): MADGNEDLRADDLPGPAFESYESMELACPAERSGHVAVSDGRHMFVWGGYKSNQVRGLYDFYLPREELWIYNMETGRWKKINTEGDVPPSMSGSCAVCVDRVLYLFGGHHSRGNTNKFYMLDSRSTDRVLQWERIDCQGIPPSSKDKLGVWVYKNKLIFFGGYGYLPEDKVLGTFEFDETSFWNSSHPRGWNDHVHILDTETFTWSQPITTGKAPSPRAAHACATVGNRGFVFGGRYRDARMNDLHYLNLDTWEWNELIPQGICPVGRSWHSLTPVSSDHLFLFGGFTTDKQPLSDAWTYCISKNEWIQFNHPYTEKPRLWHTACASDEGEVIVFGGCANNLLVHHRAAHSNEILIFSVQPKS
Assay: KLHDC2 HTRF binding assay
Conditions: 1 nM KLHDC2 (residues 1-363), fluorescein-labeled diglycine peptide probe
Listed compounds paired with reported IC50

Solved entries (count: 5):
| COMPOUND | READOUT KIND | RESULT |
| --- | --- | --- |
| Cc1cc(OCc2ccccc2)ccc1-c1ccc(=O)n(CC(=O)O)c1 [I-366] | IC50 | > 5 µM |
| CC(C)(C)OC(=O)NCCCCCCc1cc(C(=O)Nc2ccc(=O)n(CC(=O)O)c2)cc(-c2cccnc2)c1 [I-165] | IC50 | < 0.05 µM |
| CN(C)C(=O)Cc1ccc(=O)n(CC(=O)O)c1 [I-284] | IC50 | > 5 µM |
| CCOC(=O)Cn1cc(NC(=O)c2cc(CCCCCCNC(=O)OC(C)(C)C)cc(-c3cccnc3)c2)ccc1=O [I-162] | IC50 | > 5 µM |
| O=C(O)Cn1cc(-c2cccc(O)c2)ccc1=O [I-368] | IC50 | > 5 µM |

Query block: Quick check: IC50 of O=C(O)Cc1ccccc1O [I-425] ?
Result block: > 5 µM

Query block: Quick check: IC50 of O=C(O)Cn1cc(NC(=O)c2ccc(-c3cccnc3)s2)ccc1=O [I-205] ?
Result block: > 5 µM

Query block: Quick check: IC50 of CCc1ccccc1C(=O)Nc1ccc(=O)n(CC(=O)O)c1 [I-318] ?
Result block: > 5 µM

Query block: Quick check: IC50 of NCCCCCCc1ccncc1-c1cccc(C(=O)Nc2ccc(=O)n(CC(=O)O)c2)c1 [I-163] ?
Result block: 0.5 to 5 µM

Query block: Quick check: IC50 of Cc1ccc(Cl)cc1-c1ccc(=O)n(CC(=O)O)c1 [I-401] ?
Result block: > 5 µM

----------
Target: truncated His-MBP-Tev-KLHDC2 (residues 1-363) (Homo sapiens, UniProt Q9Y2U9)
Construct: truncated His -MBP-Tev-KLHDC2 (residues 1-363) purified from E. coli; made in house; host or cells: E. coli
Assay: KLHDC2 HTRF binding assay
Details: 1 nM KLHDC2 (residues 1-363), fluorescein-labeled diglycine peptide probe
READOUT KIND: IC50

Solved entries (count: 4):
| MOLECULE | IC50 |
| --- | --- |
| COc1nc2ccccc2cc1C(=O)Nc1ccc(=O)n(CC(=O)O)c1 [I-186] | > 5 µM |
| O=C(O)Cn1cc(N2CC[C@@]3(CCN(c4cccnc4)C3)C2=O)ccc1=O [I-2] | 0.5 to 5 µM |
| O=C(O)Cn1cc(-c2cccc(F)c2)ccc1=O [I-420] | > 5 µM |
| O=C(O)Cn1cc(-c2ccc(N3CCOCC3)cc2)ccc1=O [I-312] | > 5 µM |

Query block: Quick check: IC50 of O=C(O)Cn1cc(NC(=O)c2ccc(-c3ccccc3)cc2F)ccc1=O [I-161] ?
Result block: 0.5 to 5 µM

Query block: Quick check: IC50 of Cc1c(Cl)cccc1OCC(=O)Nc1ccc(=O)n(CC(=O)O)c1 [I-309] ?
Result block: 0.5 to 5 µM

Query block: Quick check: IC50 of O=C(O)Cn1cc(NC(=O)c2cc(-c3cccnc3)c3ccccc3c2)ccc1=O [I-88] ?
Result block: 0.5 to 5 µM

Query block: Quick check: IC50 of O=C(O)Cn1cc(N2Cc3cccc(-c4cccnc4)c3C2=O)ccc1=O [I-80] ?
Result block: > 5 µM

Query block: Quick check: IC50 of O=C(O)Cn1cc(CC(=O)N2CCc3ccccc32)ccc1=O [I-277] ?
Result block: > 5 µM

Query block: Quick check: IC50 of O=C(O)Cn1cc(NC(=O)[C@@H]2CCCN(c3cccnc3)C2)c(C(F)(F)F)cc1=O [I-63] ?
Result block: 0.5 to 5 µM

Reference for the values: patent US20250214969A1
